# System: EKVX NSCLC
# Assay method text: NCI tumour cell line growth inhibition, 48 h; in the data active = GI50 below about 0.43 µM; inactive = the rest
Response enum: t (active), f (inactive)

[
  {
    "Compound": "COC1C(O)C(C)OC(OC2C(Oc3cccc4c(O)c5c(=O)oc6ccc(C)c7c(=O)oc(c34)c5c67)OC(C)C(O)C2O)C1O (stereo not drawn)",
    "Class": "f"
  },
  {
    "Compound": "Cc1cc2cn3c4ccc(O)cc4[nH]c(=O)c3c2cc1C",
    "Class": "t"
  }
]

Consider the record given below.
Query :: How did this test come out for CCCCCCCCCc1cc[n+](CC(=O)c2ccc([N+](=O)[O-])cc2)cc1 ?
Result :: f

###

A collection of compounds and their measured TGI
# System: NCI-H226 lung
# Assay method text: NCI tumour cell line growth inhibition, 48 h

See these solved cases before continuing.
[
  {
    "Compound": "S=P1(N2CCCCC2)Oc2ccc3ccccc3c2-c2c(ccc3ccccc23)O1",
    "TGI": "> 100 µM"
  },
  {
    "Compound": "Cc1ccccc1C(=O)Oc1ccc(O)cc1",
    "TGI": "> 100 µM"
  },
  {
    "Compound": "CCN(CC)C(=S)SS(=O)(=O)c1ccc(Cl)cc1",
    "TGI": "> 100 µM"
  }
]

Let's switch to this compound now.
Query :: For the compound C=C(C)C1CC/C(C)=C/CC[C@]2(C)O[C@H]2CC/C(COC(C)=O)=C\[C@@H]1O (some centres undefined) , what TGI is on record?
Result :: > 50 µM

###

# Test system: HCT-15 colon
# Assay method text: NCI tumour cell line growth inhibition, 48 h
Property: TGI

[
  {
    "Compound": "CC(=O)NNc1nc(C)c(C(/C=C/c2ccc([N+](=O)[O-])cc2)=N/NC(N)=S)s1",
    "Target system": "HCT-15 colon",
    "TGI": "> 100 µM"
  },
  {
    "Compound": "Cc1cc(C)c2c(c1)CC1(Cc3c(C)ccc(C)c3C1=O)C2=O (configuration not stated)",
    "Target system": "HCT-15 colon",
    "TGI": "> 100 µM"
  },
  {
    "Compound": "O=C(Nc1nn(C(=O)c2ccc(Cl)cc2)c(=O)s1)c1ccc(Cl)cc1",
    "Target system": "HCT-15 colon",
    "TGI": "> 100 µM"
  },
  {
    "Compound": "O=C1CC(=O)NC(=NN2C(=O)/C(=C/c3ccccc3)N=C2c2ccccc2)N1",
    "Target system": "HCT-15 colon",
    "TGI": "> 100 µM"
  },
  {
    "Compound": "O=C(Cc1csc(N=Nc2c(O)[nH]c3ccccc23)n1)Nc1ccccc1",
    "Target system": "HCT-15 colon",
    "TGI": "> 100 µM"
  }
]

Query :: Entry O=C(O)Cc1ccc(Oc2nc3ccccc3nc2C(=O)O)cc1 : reported TGI = ?
Result :: > 100 µM

Query :: Value lookup for TGI; key = OC[C@]1(n2nc3ccccc3n2)OC[C@@H]1c1ccccc1
Result :: > 100 µM

###

TGI overview
# Tested on: NCI/ADR-RES ovarian
# Assay method text: NCI tumour cell line growth inhibition, 48 h

Solved cases (8 shown):
[
  {
    "Compound": "CC(=O)NNc1nc(C)c(C(/C=C/c2ccc([N+](=O)[O-])cc2)=N/NC(N)=S)s1",
    "Experimental result": "> 100 µM"
  },
  {
    "Compound": "COc1cc(/C=C2/SC(c3ccccc3)N(c3ccccc3)C2=O)cc(OC)c1OC (centres undefined)",
    "Experimental result": "> 100 µM"
  },
  {
    "Compound": "CCOC(=O)c1nc2ccccc2nc1Nc1ccc(OC)c(OC)c1",
    "Experimental result": "> 100 µM"
  },
  {
    "Compound": "COc1cc2c(cc1OC)C(OC)N(C)c1c-2ccc2cc3c(cc12)OCO3 (centres undefined)",
    "Experimental result": "> 55.3 µM"
  },
  {
    "Compound": "C=C1c2[nH]c3ccccc3c2C2C(CC)C1CCN2C (centres undefined)",
    "Experimental result": "> 100 µM"
  },
  {
    "Compound": "N#CC(C#N)=C(N)/C(C#N)=C/c1ccc2ccccc2n1",
    "Experimental result": "> 100 µM"
  },
  {
    "Compound": "CCOC(=O)Cc1csc2[n+]1C(=O)/C(=C\\c1cccc(Cl)c1Cl)S2",
    "Experimental result": "33.2 µM"
  },
  {
    "Compound": "COC(=O)NC1(NC(=O)OC)NC(=O)c2cc(OC)c(OC)c(OC)c2N1",
    "Experimental result": "56.6 µM"
  }
]

Query :: Looking for the measured TGI of O=[N+]([O-])c1ccccc1NC1c2ccccc2Oc2ccccc21 , can you help?
Result :: > 100 µM

Query :: What value of TGI has been recorded for this entry: Cc1cccc(CC(Cc2c(C)cccc2C(=O)O)C(=O)O)c1 (centres undefined)
Result :: > 100 µM

Query :: Param item = O=C(O)c1cc2ccccc2c(N=Nc2cc(C(F)(F)F)ccc2Cl)c1O ; retrieve measured TGI.
Result :: > 100 µM

Query :: I am curious: what TGI value has been reported for CCN(CC)CCCC(C)Nc1nc(C)cc(Nc2ccc3nc(C)cc(N)c3c2)n1 (centres undefined) ?
Result :: > 100 µM

Query :: Fill in: TGI of Fc1ccc(-c2ncn(C3CCNCC3)c2-c2ccnc(Oc3ccc(F)c(F)c3)n2)cc1 is ___
Result :: > 25 µM

###

# System: A549 NSCLC
# Assay method text: NCI tumour cell line growth inhibition, 48 h
Known TGI of a selection of molecules

Query :: Give its TGI value. Item: Cc1cc(Nc2c3ccccc3nc3ccccc23)ccc1NS(C)(=O)=O
Result :: 12 µM

Query :: Look up TGI: Cc1cc2cn3c4ccc(O)cc4[nH]c(=O)c3c2cc1C
Result :: 1.04 µM

Query :: Look up TGI: CCOC(=O)c1nc2ccccc2nc1Nc1ccc(OC)c(OC)c1
Result :: > 100 µM

Query :: What value of TGI has been reported for the following molecule? O=[N+]([O-])/C=C/c1cc2ccccc2[nH]1
Result :: 42.7 µM

Query :: Which TGI value belongs to COc1cc(NC(C)=O)ccc1C(=O)NN1C(=O)C(Cl)C1c1ccco1 (stereo not drawn) ?
Result :: > 100 µM

Query :: // TGI lookup, key: CC(=O)O[C@H]1CCC2[C@@H]3CCC4=C(O)C(=O)C(C#N)C[C@]4(C)C3CC[C@@]21C (stereo partly drawn)
Result :: > 100 µM

Query :: # TGI lookup, item O=C(O)CS
Result :: > 100 µM

Query :: May I ask what TGI has been recorded for COC(=O)c1c(O)c([N+](=O)[O-])cc2c1c1c(n2Cc2ccccc2)C(=O)c2ccccc2C1=O ?
Result :: > 100 µM

###

# Test system: NCI-H460 lung
# Assay method text: NCI tumour cell line growth inhibition, 48 h
# TGI per entry

[
  {
    "Compound": "Fc1ccc(-c2ncn(C3CCNCC3)c2-c2ccnc(Oc3ccc(F)c(F)c3)n2)cc1",
    "Target system": "NCI-H460 lung",
    "Experimental result": "13.1 µM"
  },
  {
    "Compound": "O=C(O)CCC/C=C\\C[C@H]1C=CC(=O)/C1=C/C[C@@H](O)CCc1cccc(C(F)(F)F)c1",
    "Target system": "NCI-H460 lung",
    "Experimental result": "4.96 µM"
  },
  {
    "Compound": "COc1cc(Nc2ncc(F)c(Nc3ccc4c(n3)NC(=O)C(C)(C)O4)n2)cc(OC)c1OC",
    "Target system": "NCI-H460 lung",
    "Experimental result": "> 100 µM"
  },
  {
    "Compound": "CN(C)/N=C(/c1nc2ccc([N+](=O)[O-])cc2[nH]c1=O)C(O)c1ccco1 (centres undefined)",
    "Target system": "NCI-H460 lung",
    "Experimental result": "> 100 µM"
  }
]

Query :: So what's the measured TGI for this one? CC1(C)CC(=O)C2=C(C1)NC1=C(C(=O)CC(C)(C)C1)C2c1ccc([N+](=O)[O-])cc1
Result :: > 100 µM

Query :: If you can, please state the reported TGI value of Nc1nc2cc3ccc(C4CC(O)C(CO)O4)cc3cc2c(=O)[nH]1 (centres undefined) .
Result :: > 100 µM

Query :: Fill blank: measured TGI of the compound N#CSc1c[nH]c2ccc(/C=C/C(=O)/C=C(/C=C/c3ccc4[nH]cc(SC#N)c4c3)OB(F)F)cc12 is ____.
Result :: 2.37 µM

Query :: For the compound CCOC(=O)Cc1csc2[n+]1C(=O)/C(=C\c1cccc(Cl)c1Cl)S2 , what TGI is on record?
Result :: 45.8 µM

Query :: # lookup: TGI of C=C1c2[nH]c3ccccc3c2C2C(CC)C1CCN2C (centres undefined)
Result :: > 100 µM

Query :: Quick one: TGI of CCCCOC(=O)NC(Nc1cccc(C(F)(F)F)c1)(C(F)(F)F)C(F)(F)F ?
Result :: > 100 µM
